# conditions: rat, in vivo, sc, 50 mg/kg
e = 2'-O-(2-methoxyethyl) (MOE); d = 2'-deoxy (DNA)
endpoint name: BUN (mg/dL)
Give bare numbers, in mg/dL.

INSERT INTO assay_data (substance, reported_result) VALUES
  ('ISIS 416856: MOE gapmer, nucleobases 1275 to 1318 of SEQ ID NO: 1 (Table 8) (antisense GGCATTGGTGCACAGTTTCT; MOE gapmer, wing and gap sizes not given here)', 23);

Below are some substances; for each one, tell me its BUN.
1. ISIS 416867: MOE gapmer, nucleobases 1275 to 1318 of SEQ ID NO: 1 (Table 8) (antisense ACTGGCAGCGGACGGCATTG; MOE gapmer, wing and gap sizes not given here)
2. ISIS 412224: 5-10-5 MOE gapmer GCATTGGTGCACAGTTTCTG (sugars from the 5' end e5 d10 e5, backbone and methylation of C not given here)

1. 22
2. 24
